All figures here come from patent US7994209B2.

Test Target: hNET (Homo sapiens, UniProt P23975)
Sequence (P23975 whole entry): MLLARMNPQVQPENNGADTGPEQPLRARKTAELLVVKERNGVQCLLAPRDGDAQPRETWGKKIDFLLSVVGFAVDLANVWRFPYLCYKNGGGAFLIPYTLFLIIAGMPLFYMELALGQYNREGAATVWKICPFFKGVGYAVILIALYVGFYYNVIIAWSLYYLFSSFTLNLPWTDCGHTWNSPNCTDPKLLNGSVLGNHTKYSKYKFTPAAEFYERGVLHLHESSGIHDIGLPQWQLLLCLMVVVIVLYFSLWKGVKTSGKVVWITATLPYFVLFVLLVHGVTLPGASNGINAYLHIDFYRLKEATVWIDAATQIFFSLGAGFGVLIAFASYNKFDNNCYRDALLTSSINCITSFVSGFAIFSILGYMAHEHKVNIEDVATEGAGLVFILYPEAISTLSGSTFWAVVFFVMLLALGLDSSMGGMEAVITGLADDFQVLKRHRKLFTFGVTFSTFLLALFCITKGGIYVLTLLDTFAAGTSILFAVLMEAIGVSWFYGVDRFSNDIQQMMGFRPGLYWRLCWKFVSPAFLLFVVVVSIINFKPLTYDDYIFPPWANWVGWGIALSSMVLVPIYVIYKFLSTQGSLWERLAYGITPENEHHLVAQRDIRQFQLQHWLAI
pKi: −log10 of the molar value.
Listed compounds paired with reported pKi

Challenge: Please give measured pKi of the following entry: `Cc1ccc(O[C@H](C2CC2)[C@@H]2CCNC2)c(Cl)c1`
Response given: ≥ 7.00

Challenge: Dear colleague, please send me the reported pKi for `CCC[C@H](Oc1ccc(Cl)cc1Cl)[C@@H]1CCNC1` when you can.
Response given: ≥ 7.00

Challenge: Note down pKi recorded for `Fc1cc(Cl)cc(Cl)c1O[C@@H](C1CC1)[C@H]1CCNC1`
Response given: ≥ 8.00

Challenge: Entry `CC(C)C[C@H](Oc1cccc(Cl)c1Cl)[C@@H]1CCNC1` needs its pKi filled in; supply it.
Response given: ≥ 8.00

###

Test Target: hNET (Homo sapiens)
Assay Comment: fluorescence-based norepinephrine reuptake inhibition assay (Tsuruda et al. 2010; data indicated by an asterisk)
Type: cell-based
Parameters: expressed in transfected cells; host or cells: HEK-293
Stated Conditions: norepinephrine reuptake inhibition, fluorescence-based assay (values with asterisk); read-out: NET pIC50 (converted)
Endpoint Label: IC50

INSERT INTO measurements (line_notation, result) VALUES
  ('CC(C)[C@H](Oc1ccc(Cl)c(Cl)c1)[C@@H]1CCNC1', '≤ 100 nM'),
  ('Fc1c(Cl)ccc(O[C@@H](C2CC2)[C@H]2CCNC2)c1F', '≤ 10 nM'),
  ('CCC[C@@H](Oc1cccc(F)c1F)[C@H]1CCNC1', '≤ 10 nM');

Challenge: Read off the recorded IC50 for `CC(C)[C@@H](Oc1ccc(Cl)c(F)c1)[C@@H]1CCNC1`
Response given: ≤ 100 nM

Challenge: Supply recorded IC50 for `CC(C)C[C@H](Oc1c(F)ccc(F)c1Cl)[C@H]1CCNC1` here.
Response given: ≤ 10 nM

Challenge: Item `Cc1cc(Cl)ccc1O[C@H](C(C)C)[C@@H]1CCNC1` : provide IC50
Response given: ≤ 100 nM

Challenge: Supply reported IC50 belonging to this compound: `Clc1ccc(O[C@H](C2CC2)[C@H]2CCNC2)cc1Cl`
Response given: ≤ 10 nM

Challenge: For the compound `CCOc1cc(Cl)ccc1O[C@@H](C1CC1)[C@H]1CCNC1` , report IC50.
Response given: ≤ 10 nM

Challenge: # return recorded IC50 for input `CC[C@@H](Oc1cc(F)cc(Cl)c1)[C@H]1CCNC1`
Response given: ≤ 10 nM

Challenge: Note down IC50 recorded for `CCC(CC)[C@@H](Oc1cccc(Cl)c1Cl)[C@H]1CCNC1`
Response given: ≤ 10 nM

Challenge: Answer with the recorded IC50 of `Clc1ccccc1O[C@@H](C1CC1)[C@H]1CCNC1` only.
Response given: ≤ 10 nM

###

Test Target: hSERT (Homo sapiens)
Sequence (P31645 whole entry): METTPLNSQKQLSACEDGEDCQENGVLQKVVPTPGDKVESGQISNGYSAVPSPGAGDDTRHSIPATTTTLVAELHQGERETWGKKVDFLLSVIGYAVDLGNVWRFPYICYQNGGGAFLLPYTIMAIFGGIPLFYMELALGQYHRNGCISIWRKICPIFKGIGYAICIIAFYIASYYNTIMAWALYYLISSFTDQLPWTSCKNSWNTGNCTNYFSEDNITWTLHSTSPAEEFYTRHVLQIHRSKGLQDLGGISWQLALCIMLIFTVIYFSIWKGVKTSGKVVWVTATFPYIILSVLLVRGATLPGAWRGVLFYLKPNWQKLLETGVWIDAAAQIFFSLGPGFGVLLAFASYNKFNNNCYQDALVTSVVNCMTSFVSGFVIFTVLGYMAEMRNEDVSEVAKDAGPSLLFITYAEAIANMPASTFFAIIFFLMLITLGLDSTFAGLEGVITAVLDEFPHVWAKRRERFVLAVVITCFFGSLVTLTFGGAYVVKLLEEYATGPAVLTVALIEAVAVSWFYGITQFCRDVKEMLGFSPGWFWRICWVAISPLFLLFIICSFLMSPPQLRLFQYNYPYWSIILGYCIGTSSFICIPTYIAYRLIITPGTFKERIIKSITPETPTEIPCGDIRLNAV
Assay Comment: fluorescence-based serotonin reuptake inhibition assay (Tsuruda et al. 2010; data indicated by an asterisk)
Assay type: cell-based
Set-up: expressed in transfected cells; host or cells: HEK-293
Stated Conditions: fluorescence-based assay (values with asterisk), read-out: SERT pIC50 (converted)
Endpoint Label: IC50

Reference set (3 entries):
INSERT INTO assay_data (compound, endpoint_label, result) VALUES
  ('Cc1c(Cl)cccc1O[C@@H](C(C)C)[C@@H]1CCNC1 [Example 6-42]', 'IC50', '≤ 10 nM'),
  ('CC(C)C[C@H](Oc1ccc(Cl)c(F)c1)[C@H]1CCNC1 [Example 10-72]', 'IC50', '≤ 10 nM'),
  ('CCC[C@@H](Oc1cccc(F)c1F)[C@H]1CCNC1 [Example 4-44]', 'IC50', '≤ 100 nM');

Challenge: Under hSERT (Homo sapiens), report IC50 for CC(C)[C@@H](Oc1cc(F)cc(Cl)c1)[C@H]1CCNC1 [Example 6-60]
Response given: ≤ 10 nM

Challenge: Output reported IC50 of the compound CC(C)[C@H](Oc1c(Cl)cccc1Cl)[C@H]1CCNC1 [Example 6-28] on hSERT (Homo sapiens).
Response given: ≤ 100 nM

Challenge: Please tell me the measured IC50 for COc1cc(Cl)c(F)cc1O[C@@H](C1CC1)[C@H]1CCNC1 [Example 16-74] ; system: hSERT (Homo sapiens).
Response given: ≤ 10 nM

Challenge: Quote hSERT (Homo sapiens) IC50 for entry Cc1ccc(F)c(O[C@@H](C2CC2)[C@H]2CCNC2)c1Cl [Example 16-62] .
Response given: ≤ 100 nM

Challenge: State, for hSERT (Homo sapiens), measured IC50 of the compound listed here: COc1ccc(F)c(O[C@H](C(C)C)[C@@H]2CCNC2)c1Cl [Example 6-37]
Response given: ≤ 10 nM

Challenge: Lab note: hSERT (Homo sapiens) assay, enter IC50 for CC[C@@H](Oc1cccc(Cl)c1C(F)(F)F)[C@H]1CCNC1 [Example 2-74] here
Response given: ≤ 10 nM

Challenge: Supply IC50 measured with hSERT (Homo sapiens) for CC(C)[C@@H](Oc1c(F)cc(Cl)cc1Cl)[C@H]1CCNC1 [Example 6-31] .
Response given: ≤ 10 nM

Challenge: Give reported IC50 for CCC[C@@H](Oc1ccc(Cl)c(F)c1)[C@H]1CCNC1 [Example 4-17] (hSERT (Homo sapiens))
Response given: ≤ 10 nM

Challenge: GET IC50 | system: hSERT (Homo sapiens) | item: Clc1cc(Cl)cc(OC(C2CCCC2)C2CCNC2)c1 (centres unmarked) [Example 18-9]
Response given: ≤ 10 nM

Challenge: Provide IC50, recorded with hSERT (Homo sapiens), of CCOc1cc(Cl)ccc1O[C@H](C1CC1)[C@H]1CCNC1 [Example 16-42]
Response given: ≤ 100 nM

Challenge: Give IC50; test system hSERT (Homo sapiens); compound CC(C)C[C@@H](Oc1cccc2ccccc12)[C@H]1CCNC1 [Example 14-9]
Response given: ≤ 10 nM
